inhibition overview
molecular target: Serine/threonine-protein kinase PAK 3 (Homo sapiens) (UniProt O75914); details: at 1 µM;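 also: reported percentage is a mean inhibition value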
Sequence (O75914 whole entry, looked up): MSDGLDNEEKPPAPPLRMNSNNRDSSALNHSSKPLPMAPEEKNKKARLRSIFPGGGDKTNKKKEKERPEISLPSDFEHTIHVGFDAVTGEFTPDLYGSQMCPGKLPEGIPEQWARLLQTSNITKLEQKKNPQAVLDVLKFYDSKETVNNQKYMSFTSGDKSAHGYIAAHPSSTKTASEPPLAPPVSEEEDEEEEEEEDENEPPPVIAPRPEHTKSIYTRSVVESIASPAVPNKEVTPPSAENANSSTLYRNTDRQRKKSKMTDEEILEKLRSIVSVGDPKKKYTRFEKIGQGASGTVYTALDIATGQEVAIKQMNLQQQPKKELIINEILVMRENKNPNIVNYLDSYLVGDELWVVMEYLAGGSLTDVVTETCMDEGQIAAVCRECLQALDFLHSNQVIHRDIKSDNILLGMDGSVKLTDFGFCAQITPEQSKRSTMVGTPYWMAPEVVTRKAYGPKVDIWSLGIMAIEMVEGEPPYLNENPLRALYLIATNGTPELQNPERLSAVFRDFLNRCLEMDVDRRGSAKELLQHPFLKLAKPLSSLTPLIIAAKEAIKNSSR
# unit: % | format: bare number

QUERY: For COc1cc(Nc2nccc(-c3cnn4ncccc34)n2)cc(OC)c1 , what is its reported inhibition?
RESULT: 3.43

QUERY: What do you get for COC(=O)Nc1nc2cc(Oc3ccc(NC(=O)Nc4cccc(Br)c4)cc3)ccc2[nH]1 ?
RESULT: 2.59

QUERY: Also COc1ccc(-c2nn3ncccc3c2-c2ccnc(Nc3cccc(C(F)(F)F)c3)n2)cc1 ?
RESULT: 3.1

QUERY: What do you get for CC(C)c1ccc2c(c1)NC(=O)/C2=N/Nc1ccc(S(N)(=O)=O)cc1 ?
RESULT: 0.37

QUERY: Next compound: Cc1ccc(O)cc1Nc1ccnc2ccc(S(C)(=O)=O)cc12
RESULT: 6.05

QUERY: What would you report for NS(=O)(=O)c1ccc(Nc2cc(-c3cccc(O)c3)n[nH]2)cc1 ?
RESULT: 6.8

QUERY: Try the compound COc1cccc(-n2ncc3c(N/N=C/c4ccc(S(C)(=O)=O)cc4)ncnc32)c1
RESULT: 1.53
